Values from ChEMBL document CHEMBL1201862

- System: Malme-3M
- Experimental details: NCI tumour cell line growth inhibition, 48 h
Activity calls are given as the source filed them. No stated cut-off is given here; in the data, active = GI50 up to about 1.1 µM and inactive = higher.
Recorded GI50, one value per entry.

// solved cases for GI50 follow
For the compound CCOC(=O)c1ccc(-c2cccs2)[nH]1 , give its measured GI50 value. 63.4 µM (inactive)

For the compound Cl.O=C(O)c1cccnc1 , give its measured GI50 value. > 100 µM (inactive)

For the compound CC(NNC(=O)c1cc[n+]([BH2-]C#N)cc1)c1ccccc1 (stereo unspecified) , give its measured GI50 value. > 100 µM (inactive)

For the compound CC(=O)N1OC(C)CC1Nc1ccc(Br)cc1 (stereo unspecified) , give its measured GI50 value. > 100 µM (inactive)

For the compound C/C(CN1C(=O)c2ccccc2C1=O)=N\NS(=O)(=O)c1ccc(F)cc1 , give its measured GI50 value. > 100 µM (inactive)

Now look at this entry.
For the compound CCc1ccc(/N=C\c2cc(OC)c(OC)c(OC)c2)cc1 , give its measured GI50 value. > 100 µM (inactive)

====

Recorded GI50, one value per entry.
- System: SK-OV-3
- Experimental details: NCI tumour cell line growth inhibition, 48 h
Activity calls are given as the source filed them. No stated cut-off is given here; in the data, active = GI50 up to about 1.1 µM and inactive = higher.

For the compound O=C(/C=C/c1ccccc1O)c1cccnc1 , give its measured GI50 value. > 100 µM (inactive)

For the compound COc1ccc2c(c1)CCC(CN1CCN(CCOC(c3ccccc3)c3ccccc3)CC1)C2O (stereo not drawn) , give its measured GI50 value. 17.9 µM (inactive)

For the compound OC(c1ccoc1)c1cc2ccccc2s1 (stereo not drawn) , give its measured GI50 value. > 10 µM (inactive)

For the compound COc1cccc(C2SCC(=O)N2c2ccc(-n3c(-c4ccccc4)nc4ccccc4c3=O)cc2)c1OC (stereo not drawn) , give its measured GI50 value. > 100 µM (inactive)

For the compound CCc1cccc(CC)c1NC(=O)CC1SC(N)=NC1=O (stereo not drawn) , give its measured GI50 value. > 100 µM (inactive)

Others:
For the compound CN(O)C(=O)SCC(NC(=O)CCC(N)C(=O)O)C(=O)NCC(=O)O (stereo not drawn) , give its measured GI50 value. 294 µM (inactive)

For the compound O=C1C2=Cc3ccccc3OC2(O)Oc2ccccc21 (stereo not drawn) , give its measured GI50 value. > 100 µM (inactive)

For the compound Nc1c(/N=N/c2ccc(-c3ccc(/N=N/c4c(O)ccc5cc(S(=O)(=O)O)cc(S(=O)(=O)O)c45)cc3)cc2)c(S(=O)(=O)O)cc2cc(S(=O)(=O)O)c(/N=N/c3ccccc3)c(O)c12 , give its measured GI50 value. > 100 µM (inactive)

====

- Tested on: TK-10
- Experimental details: NCI tumour cell line growth inhibition, 48 h
Calls of active or inactive are those of the source. Cut-off read from the data, not from the text of the source: active = GI50 up to about 1.1 µM and inactive = higher.
Experimental endpoint: GI50

// solved cases for GI50 follow
Report value: GI50, system: TK-10, molecule: Oc1cnnc2nc3ccccc3n12 > 100 µM (inactive)

Report value: GI50, system: TK-10, molecule: O=C(O)CSc1nnc(-c2ccccc2)[nH]1 > 100 µM (inactive)

Report value: GI50, system: TK-10, molecule: CCOC(=O)c1ccc(-c2cccs2)[nH]1 > 65.3 µM (inactive)

Report value: GI50, system: TK-10, molecule: O=C(c1ccco1)N(C(=S)OCCOc1ccccc1)c1ccccc1 20.9 µM (inactive)

Others:
Report value: GI50, system: TK-10, molecule: CC(=O)Nc1ccc(C(O)/C(=N/N)c2nc3ccc(Cl)cc3nc2O)cc1 (configuration not stated) > 100 µM (inactive)

Report value: GI50, system: TK-10, molecule: O=C1c2ccc(O)cc2C(=O)c2ccc(O)cc21 61.8 µM (inactive)

Report value: GI50, system: TK-10, molecule: NC(Cc1nnn[nH]1)C(=O)O (configuration not stated) > 100 µM (inactive)

====

Recorded GI50, one value per entry.
- System: SF-268
- Experimental details: NCI tumour cell line growth inhibition, 48 h
Calls of active or inactive are those of the source. No stated cut-off is given here; in the data, active = GI50 up to about 1.1 µM and inactive = higher.

For the molecule COc1cc(OC)c2nc(C)c3c(c2c1)OCC3 , give its measured GI50 value. 47.2 µM (inactive)

For the molecule CCc1cccc(CC)c1NC(=O)CC1SC(N)=NC1=O (stereo unspecified) , give its measured GI50 value. > 100 µM (inactive)

For the molecule C[N+]1(C)C/C(=C\c2ccncc2)C(=O)/C(=C/c2ccncc2)C1 , give its measured GI50 value. 25.2 µM (inactive)

For the molecule Cc1ccc(NCC2CC/C(=C\c3ccc(Cl)cc3)C2=O)cc1 (stereo unspecified) , give its measured GI50 value. 18.5 µM (inactive)

For the molecule Cn1c2c(c3ccccc31)CCN(CCCCN1CCN(c3cccc(Cl)c3)CC1)C2=O , give its measured GI50 value. 16.9 µM (inactive)

Now look at this entry.
For the molecule C=C(CN(C)C)C1(c2ccccc2)CC2(CCCC2)C(=O)O1 (stereo unspecified) , give its measured GI50 value. > 100 µM (inactive)

====

Recorded GI50, one value per entry.
- Tested on: OVCAR-3
- Experimental details: NCI tumour cell line growth inhibition, 48 h
The source made the active and inactive calls. No stated cut-off is given here; in the data, active = GI50 up to about 1.1 µM and inactive = higher.

For the molecule O=C1CC2C(=O)N(Cc3ccccc3)C1C=C2S(=O)(=O)c1ccccc1 (stereo not given) , give its measured GI50 value. > 100 µM (inactive)

For the molecule O=C(c1ccccc1)c1ccc2[nH]c(-c3c(Cl)c(Cl)c(Cl)c(Cl)c3-c3nnc(-c4ccccc4)o3)nc2c1 , give its measured GI50 value. 13.8 µM (inactive)

For the molecule CC1=C(C(=O)Nc2cccc(Cl)c2)C(c2ccc([N+](=O)[O-])cc2)C(C(=O)Nc2cccc(Cl)c2)=C(C)N1 , give its measured GI50 value. 25.6 µM (inactive)

Others:
For the molecule COc1ccc(C2=C3SC=c4ccccc4=C3ON=C2c2ccccc2)cc1 , give its measured GI50 value. 94.8 µM (inactive)

For the molecule Cc1cc2nnc(C(N)=O)c(N)c2cc1C , give its measured GI50 value. > 100 µM (inactive)

For the molecule O=C1CSC(c2c[nH]c3ccccc23)N1c1cccc([N+](=O)[O-])c1 (stereo not given) , give its measured GI50 value. > 100 µM (inactive)

====

Recorded GI50, one value per entry.
- Tested on: TK-10
- Experimental details: NCI tumour cell line growth inhibition, 48 h
Calls of active or inactive are those of the source. No stated cut-off is given here; in the data, active = GI50 up to about 1.1 µM and inactive = higher.

For the compound O=C1CC2C(=O)N(Cc3ccccc3)C1C=C2S(=O)(=O)c1ccccc1 (stereo unspecified) , give its measured GI50 value. > 100 µM (inactive)

For the compound O=C(CCC=C(S(=O)(=O)c1ccccc1)S(=O)(=O)c1ccccc1)c1ccccc1 , give its measured GI50 value. 6.38 µM (inactive)

For the compound OC(c1ccoc1)c1cc2ccccc2s1 (stereo unspecified) , give its measured GI50 value. > 10 µM (inactive)

For the compound OC1CCN2Cc3ccccc3N=C12 (stereo unspecified) , give its measured GI50 value. > 100 µM (inactive)

Others:
For the compound CCN(CC)c1ccc2cc(C(N)=O)/c(=N/c3ccc(F)cc3)oc2c1 , give its measured GI50 value. 10.3 µM (inactive)

For the compound CSC1=C(C(=O)N(COCC[Si](C)(C)C)c2ccccc2Br)CCC(C(C)(C)C)C1 (stereo unspecified) , give its measured GI50 value. 23.5 µM (inactive)

====

- System: OVCAR-3
- Experimental details: NCI tumour cell line growth inhibition, 48 h
Active and inactive are the calls of the source. No stated cut-off is given here; in the data, active = GI50 up to about 1.1 µM and inactive = higher.
// one of Yes (active), No (inactive), no free text

Worked examples follow.
Query: recorded result category for CC1=NN(c2nc(N)nc(CN3CCOCC3)n2)C(C)(C)C1 in this test No

Query: recorded result category for CS(C)(=O)=N/C=C\C(=O)C(Cl)(Cl)Cl in this test No

Query: recorded result category for CCC1(OC(=O)CNC)C(=O)OCc2c1cc1n(c2=O)Cc2cc3ccccc3nc2-1 (stereo not given) in this test Yes

Query: recorded result category for CCOC(=O)c1c(C(F)(F)F)oc2c1ccc1nc3nonc3nc12 in this test No

Query: recorded result category for CCCCN(CC)c1nc(C)nc2c1c(C)c(C)n2-c1c(C)cc(C)cc1C in this test No

Others:
Query: recorded result category for CN(C(=O)c1ccccc1)C1CCCC(=O)CC1 (stereo not given) in this test No

Query: recorded result category for COc1ccc(N(C(=O)OC(C)(C)C)[C@@H]2C(C)=C[C@H]([S@@+]([O-])c3ccc(C)cc3)[C@@H]3C(=O)N(C)C(=O)[C@@H]32)cc1 in this test No

====

- Test system: U-251
- Experimental details: NCI tumour cell line growth inhibition, 48 h
Calls of active or inactive are those of the source. Rule as the data show it: active = GI50 up to about 1.1 µM and inactive = higher.
Recorded GI50, one value per entry.

For the compound CC(C)=C1CCC(CN(C)C)C1=O (centres undefined) , give its measured GI50 value. > 100 µM (inactive)

For the compound CN(C(=O)C1CC1)C1C2CN3CCC(O2)C13 (centres undefined) , give its measured GI50 value. > 100 µM (inactive)

For the compound C[N+](C)(C)CC(=O)N/N=C(\Cc1nc2ccc([N+](=O)[O-])cc2nc1O)C(=O)Nc1nc2ccc([N+](=O)[O-])cc2s1 , give its measured GI50 value. 56.6 µM (inactive)

For the compound CN(O)C(=O)SCC(NC(=O)CCC(N)C(=O)O)C(=O)NCC(=O)O (centres undefined) , give its measured GI50 value. 41.7 µM (inactive)

For the compound COc1ccc(C=O)cc1O[Si](C)(C)C(C)(C)C , give its measured GI50 value. > 100 µM (inactive)

Others:
For the compound COc1cc(/C=C/c2ccc(C)cc2)cc(OC)c1OC , give its measured GI50 value. 3.78 µM (inactive)

For the compound CN(C)CCn1c2ccccc2c2nc3cc4ccccc4cc3nc21 , give its measured GI50 value. 6.79 µM (inactive)

For the compound CN(CCNC(=O)c1nn(-c2ccc(Cl)cc2Cl)c2c1Cc1ccccc1-2)CCNC(=O)c1nn(-c2ccc(Cl)cc2Cl)c2c1Cc1ccccc1-2 , give its measured GI50 value. 2.49 µM (inactive)

For the compound O=S(=O)(O)c1ccc(-c2c3nc(c(-c4ccc(S(=O)(=O)O)cc4)c4ccc([nH]4)c(-c4ccc(S(=O)(=O)O)cc4)c4nc(c(-c5ccc(S(=O)(=O)O)cc5)c5ccc2[nH]5)C=C4)C=C3)cc1 , give its measured GI50 value. > 100 µM (inactive)
